molecular target: T1, Recombinant SARS-CoV-2 N protein His tagged (SARS-CoV-2, UniProt P0DTC9 1-419); assay: BLI (Octet Red 96E), mAb on anti-mouse Fc biosensor, N protein in solution, global 1:1 fit
T1 construct: also called nucleocapsid (N) protein; recombinant HIS tagged SARS-CoV-2 N protein
Simple rule here: Kd less than 0.1 nM is 1 (yes), otherwise 0 (no).

Exercise: Is it true that Kd reported for SCT-Pa17 (antibody, mouse IgG1, kappa, V domains shown) VH: QVQLQQPGAELVKPGASVKLSCKASGYAFTSSWINWVKRRPGQGLEWIGNVYPRSSSPNYNEKFKGKATLTVDTSSSTAYMQLSSLTSDDSAVYFCARGYGSYWYFDVWGAGTSVTVSS VL: DIQMTQSSSSFSVSLGDRVTITCKASEDIYNRLAWYQQKPGNAPRLLISGATTLETGVPSRFSGSGSGKDYALSITSLQTEDVSTYYCQEYWSLSPTFGGGTKLEIKR is less than 0.1 nM?
Solution: 0 (no)

Exercise: Is it true that Kd reported for SCT-Pa01 (antibody, mouse IgG1, kappa, V domains shown) VH: QVTLKESGPGILQPSQTLSLTCSFDGFSLSTFGMGVGWIRQPSGRGLEWLAHIWWDDDKNYKPALKSRLTISKDTSKNQVFLKIANVDTADTATYYCTRMREDSSDYVYYIMDYWGQGTSVIVAS VL: QIVLTQSPSIMSASPGEKVTISCSASSSVSYMYWYQQKPGSSPRPWIYRTSNLASGVPARFSGSGSGTSYSLTITSMEAEDAATYYCQLYHSYPPTWTFGGGTKLEIKR is less than 0.1 nM?
Solution: 0 (no)

Exercise: Is it true that Kd reported for SCT-Pa03 (antibody, mouse IgG1, kappa, V domains shown) VH: QVQLKQSGAELVRPGASVKLSCKASGYTFTDYYINWVKQRPGQGLEWIARIYPGNNYAYYDEKFKGKATLTAEKSSSTAYMQLSSLTSEDSAVYFCAKDDGYRFAYWGQGTLVTVSA VL: DIQMTQSSSYLSVSLGGRVTITCKASDHINNWLAWYQQKPGNAPRLLISGATSLETGVPSRFSGSGSGKDYTLSITSLQTEDVATYYCQQYWSTPPTFGGGTKLEIKR is less than 0.1 nM?
Solution: 0 (no)

Exercise: Is it true that Kd reported for SCT-Pa14 (antibody, mouse IgG1, kappa, V domains shown) VH: EVQLQQSGAELVSPGASVKLSCTASGFNIKDDYMHWVKQRPEQGLEWIGRIDPANGNTKYAPKFQDKATITADTSSNTAYLQLSSLTSEDTAVYYCFYSFYIPYTMDFWGQGTSVTVSS VL: ENVLTQSPAIMSATLGEKVTMSCRASSNVKYMYWYQQKSGASPKLWIYYTSNLTSGVPARFSGSGSGTSYSLTISSVEAEDAATYYCQQFTSSPYTFGSGTKLEIKR is less than 0.1 nM?
Solution: 0 (no)

Exercise: Is it true that Kd reported for SCT-Pa09 (antibody, mouse IgG1, kappa, V domains shown) VH: QVQLQQPGAELVKPGTSVRLSCQASGYTFTSSWIHWVKQRTGQGLEWIGEISLTNGDINYNEKFTSKATLTVDKSSSTAYMQLSSLTSEDSAVYYCTIIPDGYSLYWYFDVWGAGTTVTVSS VL: QIVLSQSPPILSASPGARVTMTCRASSSVNYMHWYQQKPGSSPKPWIYATSNLASGVPVRFSGSGSGTSYSLTISRVEAEDAATYYCQQWSSNPPTFGGGTKLEIKR is less than 0.1 nM?
Solution: 1 (yes)
